protocol_summary: Toxicity analysis by uptake of neutral red dye in 2.2.15 cell cultures
condition_details: human, Cytotoxity IC50 ± SD, Table 1; neutral red dye uptake; 2.2.15 cells
endpoint_label: IC50 (µM)
API: value field is a number in µM; no unit string.

Query: Entry Nc1ccn([C@H]2CC[C@@H](CO)O2)c(=O)n1 [β-D-DDC, β-D-2′,3′-dideoxycytidine, reference compound] has what IC50?
Result: 216

* * *

We begin with a simple list: items and their reported pIC50.
System: 2.2.15 cells (HepG2 cells transformed with hepatitis virion)
protocol_summary: Toxicity analysis by uptake of neutral red dye in 2.2.15 cell cultures
condition_details: read-out: Cytotoxity IC50 ± SD; Table 1; neutral red dye uptake; 2.2.15 cells
Answer as the number alone; pIC50 is minus log10 of concentration in mol/L.

Solved cases (3 shown):
Nc1ccn([C@H]2CC[C@@H](CO)O2)c(=O)n1 [β-D-DDC, β-D-2′,3′-dideoxycytidine, reference compound] = 3.66
Nc1nc(=O)n(C2CSC(CO)O2)cc1F [(−)-β-L-FTC, reference compound] = 3.53
Nc1nc(=O)n([C@@H]2CC[C@H](CO)O2)cc1F = 3.36

Query: Entry Nc1ccn([C@@H]2CC[C@H](CO)O2)c(=O)n1 has what pIC50?
Result: 3.31
